Assay: Next Generation Impactor (NGI) testing of pMDI prototype formulations
Assay type: physicochemical
Details: Formulation 2; Throat stage to MOC
Protocol: The Next Generation Pharmaceutical Impactor (NGI) testing is performed using Copley and MSP instruments. Emitted dose or Ex-device is calculated as the total dose deposited in the NGI apparatus starting from Throat stage to Micro-orifice collector (MOC). The Fine Particle Dose (FPD) is calculated as the total dose deposited in Stages 3 to MOC of the NGI apparatus. […]
recordedEndpoint: Actual Emitted dose (µg)

{"columns": ["compound", "testResult"],
 "data": [
  ["C=C(C)[C@@H]1CCC(C)=C[C@H]1c1c(O)cc(CCCCC)cc1O [CBD, cannabidiol, reference compound]", 288.7],
  ["CCCCCc1cc(O)c(C/C=C(\\C)CCC=C(C)C)c(O)c1", 328.3],
  ["CCCCCc1cc(O)c2c(c1)OC(C)(C)c1ccc(C)cc1-2", 259.6],
  ["C[N+]1(C)CCC(OC(=O)C(O)(c2ccccc2)C2CCCC2)C1 (stereo not shown) [Glycopyrronium, glycopyrronium, reference compound]", 31.4]
]}

Sourced from patent US20240325413A1
